Target: VEGFR-2 (Homo sapiens, UniProt P35968)
Sequence (P35968 20-1356): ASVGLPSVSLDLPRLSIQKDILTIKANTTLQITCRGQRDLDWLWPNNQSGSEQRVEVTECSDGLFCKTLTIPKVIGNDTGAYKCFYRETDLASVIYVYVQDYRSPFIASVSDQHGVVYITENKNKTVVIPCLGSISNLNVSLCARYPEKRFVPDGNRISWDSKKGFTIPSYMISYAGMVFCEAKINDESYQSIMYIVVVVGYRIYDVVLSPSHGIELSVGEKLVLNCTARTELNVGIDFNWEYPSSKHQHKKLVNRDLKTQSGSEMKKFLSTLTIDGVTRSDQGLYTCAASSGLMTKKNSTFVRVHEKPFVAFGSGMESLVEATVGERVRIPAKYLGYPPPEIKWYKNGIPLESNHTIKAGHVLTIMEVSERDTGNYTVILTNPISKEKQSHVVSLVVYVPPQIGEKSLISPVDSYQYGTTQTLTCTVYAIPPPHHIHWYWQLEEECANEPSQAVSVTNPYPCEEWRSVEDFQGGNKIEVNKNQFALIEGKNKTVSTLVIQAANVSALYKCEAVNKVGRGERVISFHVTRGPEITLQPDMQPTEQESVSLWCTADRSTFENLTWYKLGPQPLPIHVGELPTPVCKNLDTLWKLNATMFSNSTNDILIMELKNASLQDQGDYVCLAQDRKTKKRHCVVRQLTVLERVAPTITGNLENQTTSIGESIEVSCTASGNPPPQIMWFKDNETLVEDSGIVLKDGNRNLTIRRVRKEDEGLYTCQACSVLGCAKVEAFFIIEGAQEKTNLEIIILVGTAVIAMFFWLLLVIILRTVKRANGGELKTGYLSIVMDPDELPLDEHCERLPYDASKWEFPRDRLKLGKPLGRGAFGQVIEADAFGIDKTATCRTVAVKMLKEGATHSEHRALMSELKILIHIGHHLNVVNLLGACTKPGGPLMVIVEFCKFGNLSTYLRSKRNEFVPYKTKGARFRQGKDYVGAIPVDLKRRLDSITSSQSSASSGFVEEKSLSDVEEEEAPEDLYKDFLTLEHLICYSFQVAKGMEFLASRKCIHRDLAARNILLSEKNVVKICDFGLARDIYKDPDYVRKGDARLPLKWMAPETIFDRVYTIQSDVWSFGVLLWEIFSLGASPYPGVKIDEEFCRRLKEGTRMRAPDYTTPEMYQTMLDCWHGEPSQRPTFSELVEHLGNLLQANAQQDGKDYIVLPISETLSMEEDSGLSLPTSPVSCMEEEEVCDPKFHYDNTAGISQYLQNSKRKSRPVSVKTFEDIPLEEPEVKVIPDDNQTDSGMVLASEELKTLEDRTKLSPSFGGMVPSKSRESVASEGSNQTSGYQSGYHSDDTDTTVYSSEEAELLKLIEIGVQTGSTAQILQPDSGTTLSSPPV
Test: VEGFR-2 quantification by flow cytometry in HMEC-1
Assay type: cell-based
Design: Both membrane and total VEGFR-2 were relatively determined using dimethyl sulfoxide (DMSO) treated cells as a negative control; endogenous in cells; host or cells: HMEC-1 (human microvascular endothelial cells)
Conditions: 10 µM, 24 h, relative to DMSO control
measurement kind: Total VEGFR-2 (%)

INSERT INTO results (compound, measurement_kind, unit_abbrev, observed_measurement) VALUES
  ('COc1ccc(CCc2cccc(NC(=O)Nc3cccc(OC)c3)c2)cc1 [Compound 32]', 'Total VEGFR-2 (%)', '%', 98),
  ('COc1ccc(/C=C/c2cccc(NC(=O)Nc3ccc(OC)cc3)c2)cc1 [Compound 26]', 'Total VEGFR-2 (%)', '%', 83),
  ('COc1ccc(/C=C\c2cccc(NC(=O)Nc3ccc(Br)cc3)c2)cc1 [Compound 16]', 'Total VEGFR-2 (%)', '%', 59),
  ('COc1ccc(CCc2cccc(NC(=O)Nc3ccc(OC)cc3)c2)cc1 [Compound 33]', 'Total VEGFR-2 (%)', '%', 93),
  ('COc1ccc(/C=C\c2cccc(NC(=O)Nc3ccc(OC)cc3)c2)cc1 [Compound 19]', 'Total VEGFR-2 (%)', '%', 99),
  ('COc1ccc(/C=C\c2cccc(NC(=O)Nc3ccccc3OC)c2)cc1 [Compound 17]', 'Total VEGFR-2 (%)', '%', 97),
  ('COc1ccc(/C=C/c2cccc(NC(=O)Nc3ccc(Br)cc3)c2)cc1 [Compound 23]', 'Total VEGFR-2 (%)', '%', 74),
  ('COc1ccc(/C=C/c2cccc(NC(=O)Nc3cccc(OC)c3)c2)cc1 [Compound 25]', 'Total VEGFR-2 (%)', '%', 96);

====

Tested on: MCF-7 (breast adenocarcinoma)
Assay: Cell proliferation assay (MTT)
Format: cell-based
Conditions: Homo sapiens, MCF7, 48 h, 2 days incubation, average ± SD of three experiments
pIC50: −log10 of the molar value.
In this section we review reported pIC50 values for a set of molecules.
measurement kind: pIC50

INSERT INTO measurements (molecule, target_under_test, observed_measurement) VALUES
  ('COc1ccc(/C=C\c2cccc(NC(=O)Nc3cccc(OC)c3)c2)cc1', 'MCF-7 (breast adenocarcinoma)', 4.72),
  ('COc1ccc(/C=C/c2cccc(NC(=O)Nc3ccccc3OC)c2)cc1', 'MCF-7 (breast adenocarcinoma)', 5.44),
  ('Cc1c(COc2ccc(CN3CCCCC3C(=O)O)cc2Br)cccc1-c1ccccc1 (stereo not drawn) [BMS-8, reference compound]', 'MCF-7 (breast adenocarcinoma)', 4.70),
  ('COc1ccc(/C=C/c2cccc(NC(=O)Nc3cccc(Br)c3)c2)cc1', 'MCF-7 (breast adenocarcinoma)', 6.22),
  ('COc1ccc(CCc2cccc(NC(=O)Nc3ccc(Br)cc3)c2)cc1', 'MCF-7 (breast adenocarcinoma)', 5.40),
  ('COc1ccc(CCc2cccc(NC(=O)Nc3ccc(OC)cc3)c2)cc1', 'MCF-7 (breast adenocarcinoma)', 5.82),
  ('COc1ccc(/C=C\c2cccc(NC(=O)Nc3ccccc3OC)c2)cc1', 'MCF-7 (breast adenocarcinoma)', 4.82),
  ('COc1ccc(/C=C\c2cccc(NC(=O)Nc3ccccc3Br)c2)cc1', 'MCF-7 (breast adenocarcinoma)', 4.60),
  ('COc1ccc(/C=C/c2cccc(NC(=O)Nc3ccccc3Br)c2)cc1', 'MCF-7 (breast adenocarcinoma)', 5.80);

====

Target: VEGFR-2 (Homo sapiens, UniProt P35968)
Experiment: VEGFR-2 quantification by flow cytometry in HMEC-1
Type: cell-based
Set-up: Both membrane and total VEGFR-2 were relatively determined using dimethyl sulfoxide (DMSO) treated cells as a negative control; endogenous in cells; host or cells: HMEC-1 (human microvascular endothelial cells)
Settings: 10 µM, 24 h, relative to DMSO control
Measured Membrane VEGFR-2 (%), listed per entry for reference.
measurement kind: Membrane VEGFR-2 (%)

INSERT INTO measurements (structure, measurement_kind, unit_abbrev, observed_measurement) VALUES
  ('COc1ccc(/C=C\c2cccc(NC(=O)Nc3ccc(Br)cc3)c2)cc1', 'Membrane VEGFR-2 (%)', '%', 45),
  ('COc1ccc(/C=C\c2cccc(NC(=O)Nc3ccc(OC)cc3)c2)cc1', 'Membrane VEGFR-2 (%)', '%', 98),
  ('COc1ccc(/C=C/c2cccc(NC(=O)Nc3ccc(OC)cc3)c2)cc1', 'Membrane VEGFR-2 (%)', '%', 65);

====

Listing of recorded pIC50 by entry.
Tested on: HeLa (epithelioid cervix carcinoma)
Test: Cell proliferation assay (MTT)
Format: cell-based
Conditions: Homo sapiens, 48 h, 2 days incubation, average ± SD of three experiments
pIC50: −log10 of the molar value.
measurement kind: pIC50

INSERT INTO assay_data (compound, target_under_test, sign_qualifier, observed_measurement) VALUES
  ('Cc1c(COc2ccc(CN3CCCCC3C(=O)O)cc2Br)cccc1-c1ccccc1 (stereo not drawn) [BMS-8, reference compound]', 'HeLa (epithelioid cervix carcinoma)', '<', 4.00),
  ('COc1ccc(CCc2cccc(NC(=O)Nc3ccccc3Br)c2)cc1', 'HeLa (epithelioid cervix carcinoma)', '=', 5.40),
  ('COc1ccc(/C=C/c2cccc(NC(=O)Nc3ccccc3)c2)cc1', 'HeLa (epithelioid cervix carcinoma)', '=', 4.38),
  ('COc1ccc(/C=C\c2cccc(NC(=O)Nc3ccc(Br)cc3)c2)cc1', 'HeLa (epithelioid cervix carcinoma)', '=', 4.92),
  ('COc1ccc(/C=C\c2cccc(NC(=O)Nc3ccc(OC)cc3)c2)cc1', 'HeLa (epithelioid cervix carcinoma)', '=', 5.30),
  ('COc1ccc(/C=C\c2cccc(NC(=O)Nc3ccccc3)c2)cc1', 'HeLa (epithelioid cervix carcinoma)', '=', 4.49);

====

Target: VEGFR-2 (Homo sapiens, UniProt P35968)
Test: VEGFR-2 quantification by flow cytometry in HMEC-1
Type: cell-based
Parameters: Both membrane and total VEGFR-2 were relatively determined using dimethyl sulfoxide (DMSO) treated cells as a negative control; endogenous in cells; host or cells: HMEC-1 (human microvascular endothelial cells)
Settings: 10 µM, 24 h, relative to DMSO control
Give t when the value for Membrane VEGFR-2 (%) is at least 70%. Give f when it is less.

INSERT INTO measurements (compound, target_under_test, answer_label) VALUES
  ('COc1ccc(CCc2cccc(NC(=O)Nc3ccc(OC)cc3)c2)cc1 [Compound 33]', 'VEGFR-2 (Homo sapiens, UniProt P35968)', 'f'),
  ('COc1ccc(/C=C\c2cccc(NC(=O)Nc3ccccc3OC)c2)cc1 [Compound 17]', 'VEGFR-2 (Homo sapiens, UniProt P35968)', 't'),
  ('COc1ccc(/C=C/c2cccc(NC(=O)Nc3cccc(OC)c3)c2)cc1 [Compound 25]', 'VEGFR-2 (Homo sapiens, UniProt P35968)', 'f'),
  ('COc1ccc(/C=C/c2cccc(NC(=O)Nc3ccc(Br)cc3)c2)cc1 [Compound 23]', 'VEGFR-2 (Homo sapiens, UniProt P35968)', 'f');

====

Target: VEGFR-2 (Homo sapiens)
Assay: VEGFR-2 quantification by flow cytometry in HT-29
Type: cell-based
Design: Both membrane and total VEGFR-2 were relatively determined using dimethyl sulfoxide (DMSO) treated cells as a negative control; endogenous in cells; host or cells: HT-29 (colon adenocarcinoma) and HMEC-1 (human microvascular endothelial cells)
Conditions: HT-29, 10 µM, 24 h, relative to DMSO control
measurement kind: Total VEGFR-2 (%)

INSERT INTO results (compound, unit_abbrev, observed_measurement) VALUES
  ('COc1ccc(/C=C\c2cccc(NC(=O)Nc3ccc(OC)cc3)c2)cc1 [Compound 19]', '%', 97),
  ('COc1ccc(/C=C/c2cccc(NC(=O)Nc3cccc(OC)c3)c2)cc1 [Compound 25]', '%', 94),
  ('COc1ccc(/C=C/c2cccc(NC(=O)Nc3ccc(Br)cc3)c2)cc1 [Compound 23]', '%', 39),
  ('COc1ccc(CCc2cccc(NC(=O)Nc3cccc(OC)c3)c2)cc1 [Compound 32]', '%', 93),
  ('COc1ccc(CCc2cccc(NC(=O)Nc3ccc(OC)cc3)c2)cc1 [Compound 33]', '%', 100),
  ('COc1ccc(/C=C\c2cccc(NC(=O)Nc3ccccc3OC)c2)cc1 [Compound 17]', '%', 98),
  ('COc1ccc(/C=C\c2cccc(NC(=O)Nc3ccc(Br)cc3)c2)cc1 [Compound 16]', '%', 55),
  ('COc1ccc(/C=C/c2cccc(NC(=O)Nc3ccc(OC)cc3)c2)cc1 [Compound 26]', '%', 95);

====

Target: PD-L1 (Homo sapiens, UniProt Q9NZQ7)
Sequence (Q9NZQ7 19-290): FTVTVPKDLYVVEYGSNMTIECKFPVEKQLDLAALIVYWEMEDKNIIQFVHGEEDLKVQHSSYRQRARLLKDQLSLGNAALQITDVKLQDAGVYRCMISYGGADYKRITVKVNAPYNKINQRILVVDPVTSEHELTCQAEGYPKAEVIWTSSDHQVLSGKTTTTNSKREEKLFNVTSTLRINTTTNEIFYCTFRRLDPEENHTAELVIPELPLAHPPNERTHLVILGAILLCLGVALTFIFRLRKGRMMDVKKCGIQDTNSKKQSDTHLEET
Assay: PD-L1 quantification by flow cytometry in HT-29
Type: cell-based
Settings: HT-29, 10 μM, 24 h, referred to control (DMSO)
Catalogue of PD-L1 (%) relative expression values
measurement kind: PD-L1 (%) relative expression

INSERT INTO measurements (compound, measurement_kind, observed_measurement) VALUES
  ('COc1ccc(CCc2cccc(NC(=O)Nc3cccc(OC)c3)c2)cc1', 'PD-L1 (%) relative expression', 55),
  ('COc1ccc(/C=C/c2cccc(NC(=O)Nc3ccc(OC)cc3)c2)cc1', 'PD-L1 (%) relative expression', 33),
  ('COc1ccc(/C=C/c2cccc(NC(=O)Nc3cccc(OC)c3)c2)cc1', 'PD-L1 (%) relative expression', 69),
  ('COc1ccc(/C=C/c2cccc(NC(=O)Nc3ccc(Br)cc3)c2)cc1', 'PD-L1 (%) relative expression', 18),
  ('COc1ccc(/C=C\c2cccc(NC(=O)Nc3ccc(OC)cc3)c2)cc1', 'PD-L1 (%) relative expression', 36),
  ('COc1ccc(/C=C\c2cccc(NC(=O)Nc3ccc(Br)cc3)c2)cc1', 'PD-L1 (%) relative expression', 17),
  ('COc1ccc(CCc2cccc(NC(=O)Nc3ccc(OC)cc3)c2)cc1', 'PD-L1 (%) relative expression', 38),
  ('Cc1c(COc2ccc(CN3CCCCC3C(=O)O)cc2Br)cccc1-c1ccccc1 (stereo not drawn) [BMS-8, reference compound]', 'PD-L1 (%) relative expression', 62),
  ('COc1ccc(/C=C\c2cccc(NC(=O)Nc3ccccc3OC)c2)cc1', 'PD-L1 (%) relative expression', 60);

Ref: paper PMC8067507
